The measurements presented in this section are drawn from PubChem BioAssay AID1963964.

# Tested on: 997726-040-R-J2-PDC tumor spheroids, viability
# assay-method-text: Anticancer human tumor 997726-040-R-J2-PDC patient-derived squamous cell lung carcinoma cell line growth inhibition [PI3K]; active = viability on the fitted dose curve at most 10% of control; inactive = the rest
# condition-summary: second compound 0.0316 µM; first compound 3.16 µM; spheroids with HUVEC and MSC
Respond with a class label; see 1.0 = active, 0.0 = inactive

Please review the following examples before continuing.
{"columns": ["compound", "class-assignment"],
 "data": [
  ["C[C@@H](NC(=O)c1ncnc(N)c1Cl)c1ncc(C(=O)Nc2cc(C(F)(F)F)c(Cl)cn2)s1 + Cc1nc(NC(=O)N2CCCC2C(N)=O)sc1-c1ccnc(C(C)(C)C(F)(F)F)c1", 0.0],
  ["CNC(=O)c1ccc(N2C(=S)N(c3ccc(C#N)c(C(F)(F)F)c3)C(=O)C2(C)C)cc1F + CC(Nc1ncnc2nc[nH]c12)c1cc2cccc(Cl)c2c(=O)n1-c1ccccc1", 0.0],
  ["Cn1ncc(Cl)c1-c1cc(C(=O)NC(CN)Cc2cccc(F)c2)sc1Cl (stereo unspecified) + CC(Nc1ncnc2nc[nH]c12)c1cc2cccc(Cl)c2c(=O)n1-c1ccccc1", 0.0]
]}

Q) Test call for this compound, please: C[C@@H](NC(=O)c1ncnc(N)c1Cl)c1ncc(C(=O)Nc2cc(C(F)(F)F)c(Cl)cn2)s1 + COc1c(OCCCN2CCOCC2)ccc2c3n(c(=NC(=O)c4cnc(N)nc4)nc12)CCN3
A) 0.0

Q) Test call for this compound, please: C#Cc1c(F)ccc2cc(O)cc(-c3ncc4c(N5CC6CCC(C5)N6)nc(OCC56CCCN5CC(F)C6)nc4c3F)c12 (stereo unspecified) + CC(Nc1ccc2c(c1)OCCn1cc(N3C(=O)OCC3C(F)F)nc1-2)C(N)=O
A) 0.0

Q) Test call for this compound, please: Cn1ncc(Cl)c1-c1cc(C(=O)NC(CN)Cc2cccc(F)c2)sc1Cl (stereo unspecified) + Cc1nc(NC(=O)N2CCCC2C(N)=O)sc1-c1ccnc(C(C)(C)C(F)(F)F)c1
A) 1.0

====

# key: entry, value: viability, T/C
# Tested on: 997726-040-R-J2-PDC tumor spheroids, viability
# assay-method-text: Anticancer human tumor 997726-040-R-J2-PDC cell line growth inhibition [PI3K];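 note: spheroids exposed to compounds for seven days before readout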
# condition-summary: second compound 0.1 µM; first compound 10 µM; stronger effect = lower value; spheroids with HUVEC and MSC
Answer in %, number only, no unit symbol.

Use these answered entries as a reference point.
{"columns": ["compound", "viability, T/C, %"],
 "data": [
  ["CC(Cn1ccc(-c2ccc(C#N)c(Cl)c2)n1)NC(=O)c1cc(C(C)O)[nH]n1 (stereo unspecified) + Cc1nc(NC(=O)N2CCCC2C(N)=O)sc1-c1ccnc(C(C)(C)C(F)(F)F)c1", 72.1],
  ["C#Cc1c(F)ccc2cc(O)cc(-c3ncc4c(N5CC6CCC(C5)N6)nc(OCC56CCCN5CC(F)C6)nc4c3F)c12 (stereo unspecified) + CC(Nc1ccc2c(c1)OCCn1cc(N3C(=O)OCC3C(F)F)nc1-2)C(N)=O", 52.9],
  ["CC1(C)CCC(CN2CCN(c3ccc(C(=O)NS(=O)(=O)c4ccc(NCC5CCOCC5)c([N+](=O)[O-])c4)c(Oc4cnc5[nH]ccc5c4)c3)CC2)=C(c2ccc(Cl)cc2)C1 + CC(Nc1ncnc2nc[nH]c12)c1cc2cccc(Cl)c2c(=O)n1-c1ccccc1", 49.4],
  ["CCCS(=O)(=O)Nc1ccc(F)c(C(=O)c2c[nH]c3ncc(-c4ccc(Cl)cc4)cc23)c1F + COc1c(OCCCN2CCOCC2)ccc2c3n(c(=NC(=O)c4cnc(N)nc4)nc12)CCN3", 16.5],
  ["CNC(=O)c1ccc(N2C(=S)N(c3ccc(C#N)c(C(F)(F)F)c3)C(=O)C2(C)C)cc1F + CC(Nc1ncnc2nc[nH]c12)c1cc2cccc(Cl)c2c(=O)n1-c1ccccc1", 92.4],
  ["CC1(C)CCC(CN2CCN(c3ccc(C(=O)NS(=O)(=O)c4ccc(NCC5CCOCC5)c([N+](=O)[O-])c4)c(Oc4cnc5[nH]ccc5c4)c3)CC2)=C(c2ccc(Cl)cc2)C1 + CC(Nc1ccc2c(c1)OCCn1cc(N3C(=O)OCC3C(F)F)nc1-2)C(N)=O", 28.3],
  ["Cn1ncc(Cl)c1-c1cc(C(=O)NC(CN)Cc2cccc(F)c2)sc1Cl (stereo unspecified) + CC(Nc1ccc2c(c1)OCCn1cc(N3C(=O)OCC3C(F)F)nc1-2)C(N)=O", 3.25],
  ["CC1(C)CCC(Nc2ncc(C(F)(F)F)c(-c3c[nH]c4c(P(C)(C)=O)c(C#N)ccc34)n2)CN1 (stereo unspecified) + COc1c(OCCCN2CCOCC2)ccc2c3n(c(=NC(=O)c4cnc(N)nc4)nc12)CCN3", 2.98],
  ["CCCS(=O)(=O)Nc1ccc(F)c(C(=O)c2c[nH]c3ncc(-c4ccc(Cl)cc4)cc23)c1F + Cc1nc(NC(=O)N2CCCC2C(N)=O)sc1-c1ccnc(C(C)(C)C(F)(F)F)c1", 22.6],
  ["CNC(=O)c1ccc(N2C(=S)N(c3ccc(C#N)c(C(F)(F)F)c3)C(=O)C2(C)C)cc1F + CC(Nc1ccc2c(c1)OCCn1cc(N3C(=O)OCC3C(F)F)nc1-2)C(N)=O", 40.3]
]}

Q) # returns recorded viability, T/C (system: 997726-040-R-J2-PDC tumor spheroids, viability) for CC(C)NCC(C(=O)N1CCN(c2ncnc3c2C(C)CC3O)CC1)c1ccc(Cl)cc1 (stereo unspecified) + CC(Nc1ncnc2nc[nH]c12)c1cc2cccc(Cl)c2c(=O)n1-c1ccccc1
A) 10.7

Q) # returns recorded viability, T/C (system: 997726-040-R-J2-PDC tumor spheroids, viability) for CCCS(=O)(=O)Nc1ccc(F)c(C(=O)c2c[nH]c3ncc(-c4ccc(Cl)cc4)cc23)c1F + CC(Nc1ccc2c(c1)OCCn1cc(N3C(=O)OCC3C(F)F)nc1-2)C(N)=O
A) 22.6

Q) # returns recorded viability, T/C (system: 997726-040-R-J2-PDC tumor spheroids, viability) for CC(C)NCC(C(=O)N1CCN(c2ncnc3c2C(C)CC3O)CC1)c1ccc(Cl)cc1 (stereo unspecified) + CC(Nc1ccc2c(c1)OCCn1cc(N3C(=O)OCC3C(F)F)nc1-2)C(N)=O
A) 6.81

Q) # returns recorded viability, T/C (system: 997726-040-R-J2-PDC tumor spheroids, viability) for CC(C)NCC(C(=O)N1CCN(c2ncnc3c2C(C)CC3O)CC1)c1ccc(Cl)cc1 (stereo unspecified) + Cc1nc(NC(=O)N2CCCC2C(N)=O)sc1-c1ccnc(C(C)(C)C(F)(F)F)c1
A) 10.6

Q) # returns recorded viability, T/C (system: 997726-040-R-J2-PDC tumor spheroids, viability) for Cn1nccc1Nc1nccc(-c2ccn(C(CO)c3ccc(Cl)c(F)c3)c(=O)c2)n1 (stereo unspecified) + Cc1nc(NC(=O)N2CCCC2C(N)=O)sc1-c1ccnc(C(C)(C)C(F)(F)F)c1
A) 48.1

Q) # returns recorded viability, T/C (system: 997726-040-R-J2-PDC tumor spheroids, viability) for CC(Cn1ccc(-c2ccc(C#N)c(Cl)c2)n1)NC(=O)c1cc(C(C)O)[nH]n1 (stereo unspecified) + COc1c(OCCCN2CCOCC2)ccc2c3n(c(=NC(=O)c4cnc(N)nc4)nc12)CCN3
A) 22.9

Q) # returns recorded viability, T/C (system: 997726-040-R-J2-PDC tumor spheroids, viability) for CC(C)NCC(C(=O)N1CCN(c2ncnc3c2C(C)CC3O)CC1)c1ccc(Cl)cc1 (stereo unspecified) + COc1c(OCCCN2CCOCC2)ccc2c3n(c(=NC(=O)c4cnc(N)nc4)nc12)CCN3
A) 5.81

Q) # returns recorded viability, T/C (system: 997726-040-R-J2-PDC tumor spheroids, viability) for Cn1nccc1Nc1nccc(-c2ccn(C(CO)c3ccc(Cl)c(F)c3)c(=O)c2)n1 (stereo unspecified) + COc1c(OCCCN2CCOCC2)ccc2c3n(c(=NC(=O)c4cnc(N)nc4)nc12)CCN3
A) 11.8

Q) # returns recorded viability, T/C (system: 997726-040-R-J2-PDC tumor spheroids, viability) for C[C@@H](NC(=O)c1ncnc(N)c1Cl)c1ncc(C(=O)Nc2cc(C(F)(F)F)c(Cl)cn2)s1 + CC(Nc1ncnc2nc[nH]c12)c1cc2cccc(Cl)c2c(=O)n1-c1ccccc1
A) 68.7

Q) # returns recorded viability, T/C (system: 997726-040-R-J2-PDC tumor spheroids, viability) for C=CC(=O)N1CCN(c2nc(=O)n(-c3c(C)ccnc3C(C)C)c3nc(-c4c(O)cccc4F)c(F)cc23)C(C)C1 (stereo unspecified) + CC(Nc1ncnc2nc[nH]c12)c1cc2cccc(Cl)c2c(=O)n1-c1ccccc1
A) 126

Q) # returns recorded viability, T/C (system: 997726-040-R-J2-PDC tumor spheroids, viability) for C=CC(=O)N1CCN(c2nc(=O)n(-c3c(C)ccnc3C(C)C)c3nc(-c4c(O)cccc4F)c(F)cc23)C(C)C1 (stereo unspecified) + COc1c(OCCCN2CCOCC2)ccc2c3n(c(=NC(=O)c4cnc(N)nc4)nc12)CCN3
A) 21.8
